Tested on: Citrobacter freundii ATCC 8090
measurement.protocol: Antibacterial activity, MIC
Format: cell-based
measurement.parameters: ATCC8090, ATCC 8090, agar two-fold dilution, 37° C., 20 hours, read-out: MIC
Listing: MIC of selected compounds

C#CCO/N=C(\C(=O)NC1C(=O)N2C(C(=O)[O-])=C(CSc3nc(N)cc(N)[n+]3N)CSC12)c1csc(N)n1 (stereo not drawn) [Compound I-18]    0.063 µg/mL

Query: Fill in the blank: the reported MIC of CC[n+]1c(SCC2=C(C(=O)[O-])N3C(=O)C(NC(=O)/C(=N\OC(C)(C)C(=O)O)c4csc(N)n4)C3SC2)nc(N)c(C)c1N (stereo not drawn) [Compound I-32] is ____.
Response: 0.13 µg/mL

Query: CCCC[n+]1c(N)cc(N)nc1SCC1=C(C(=O)[O-])N2C(=O)C(NC(=O)/C(=N\OC(C)(C)C(=O)O)c3nsc(N)n3)C2SC1 (stereo not drawn) [Compound I-29] , same question.
Response: 0.25 µg/mL

Query: CCO/N=C(\C(=O)NC1C(=O)N2C(C(=O)[O-])=C(CSc3nc(N)cc(N)[n+]3N)CSC12)c1csc(N)n1 (stereo not drawn) [Compound I-16] , same question.
Response: 0.063 µg/mL

Query: CC[n+]1c(N)cc(N)nc1SCC1=C(C(=O)[O-])N2C(=O)C(NC(=O)/C(=N\OCC(=O)O)c3csc(N)n3)C2SC1 (stereo not drawn) [Compound I-8] , same question.
Response: 0.031 µg/mL

Query: C[n+]1c(N)cc(N)nc1SCC1=C(C(=O)[O-])N2C(=O)C(NC(=O)/C(=N\OC(C)(C)C(=O)O)c3nsc(N)n3)C2SC1 (stereo not drawn) [Compound I-26] , same question.
Response: 0.13 µg/mL

* * *

measurement.protocol: In-vivo absorbency (plasma concentrations & pharmacokinetic parameters)
Design: species or system SD rat (male)
measurement.parameters: plasma; 2.5 min; SD male rat, iv 20 mg/kg; read-out: Plasma Conc.
test.readout: concentration at 2.5 min
In your response, put the unit directly after the numeric value.

CC[n+]1c(N)cc(N)nc1SCC1=C(C(=O)[O-])N2C(=O)C(NC(=O)/C(=N\OCC(=O)O)c3csc(N)n3)C2SC1 (stereo not drawn)    92 µg/mL
Cc1c(N)nc(SCC2=C(C(=O)[O-])N3C(=O)C(NC(=O)/C(=N\OC(C)(C)C(=O)O)c4csc(N)n4)C3SC2)[n+](N)c1N (stereo not drawn)    89 µg/mL

// next entry
Query: Fill in the blank: the reported concentration at 2.5 min of CC[n+]1c(N)cc(N)nc1SCC1=C(C(=O)[O-])N2C(=O)C(NC(=O)/C(=N\OC(C)C(=O)O)c3csc(N)n3)C2SC1 (stereo not drawn) is ____.
Response: 91 µg/mL

* * *

Listing: half-life of selected compounds
measurement.protocol: In-vivo absorbency (plasma concentrations & pharmacokinetic parameters)
Parameters: species or system SD rat (male)
measurement.parameters: rat, plasma, iv, 20 mg/kg, SD male rat, iv 20 mg/kg; two compartment model; read-out: T1/2 (α)
Write it as a number; the unit min goes unstated.

Solved cases (2 shown):
CC[n+]1c(SCC2=C(C(=O)[O-])N3C(=O)C(NC(=O)/C(=N\OC(C)(C)C(=O)O)c4csc(N)n4)C3SC2)nc(N)c(C)c1N (stereo not drawn)    3
C[n+]1c(N)cc(N)nc1SCC1=C(C(=O)[O-])N2C(=O)C(NC(=O)/C(=N\OCC(=O)O)c3csc(N)n3)C2SC1 (stereo not drawn)    2

// next entry
Query: Fill in the blank: the reported half-life of Cc1c(N)nc(SCC2=C(C(=O)[O-])N3C(=O)C(NC(=O)/C(=N\OC(C)(C)C(=O)O)c4csc(N)n4)C3SC2)[n+](N)c1N (stereo not drawn) is ____.
Response: 1
